target: human TGFßRII (antigen of the Octet experiments) (human, UniProt P37173 23-166); assay: BLI (Octet)
Sequence (P37173 23-166): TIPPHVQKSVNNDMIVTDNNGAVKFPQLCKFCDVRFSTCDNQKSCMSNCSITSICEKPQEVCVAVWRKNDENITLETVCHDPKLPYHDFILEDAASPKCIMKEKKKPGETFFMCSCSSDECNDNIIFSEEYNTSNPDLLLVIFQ
Listed binders paired with reported Kd
The answer is to be given in nM; state only the numeric part.

Ask | # lookup: Kd of H1 L1.13 XENP34576 (antibody, V domains shown) VH: QLQVQESGPGLVKPSETLSLTCTVSGGSISNSYFSWGWIRQPPGKGLEWIGSFYYGEKTYYNPSLKSRATISIDTSKSQFSLKLSSVTAADTAVYYCPRGPTMIRGVIDSWGQGTLVTVSS VL: EIVLTQSPATLSLSPGERATLSCRASQSVRSHLAWYQQKPGQAPRLLIYDASNRATGIPARFSGSGSGTDFTLTISSLEPEDFAVYYCQQRSNWPPTFGQGTKVEIK
Reply | 1.19

Ask | # lookup: Kd of H1 L1.30 XENP34593 (antibody, V domains shown) VH: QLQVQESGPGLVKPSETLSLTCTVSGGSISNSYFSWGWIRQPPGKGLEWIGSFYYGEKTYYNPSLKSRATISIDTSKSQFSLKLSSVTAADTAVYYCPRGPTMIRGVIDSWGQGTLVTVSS VL: EIVLTQSPATLSLSPGERATLSCRASQSVRSYLAWYQQKPGQAPRLLIYDASNRATGIPARFSGSGSGTEFTLTISSLEPEDFAVYYCQQRSNWPPTFGQGTKVEIK
Reply | 0.668
